ASSAY_SUMMARY: recombinant UMI read abundance after kanamycin selection (control-corrected) (log10(CPM+1)); higher = more efficient recombination; extreme values may be limits of the assay; sequences stand for … in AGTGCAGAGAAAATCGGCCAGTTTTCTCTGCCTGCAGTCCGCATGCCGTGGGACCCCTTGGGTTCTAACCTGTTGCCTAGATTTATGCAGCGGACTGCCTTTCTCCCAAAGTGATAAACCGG…AGGTTGGTTTCACT; site = the 11-nt donor;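 also: IS621 bridge recombinase in Escherichia coli cells against a fixed T5 target plasmid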
Let's look at some sequences and their measured recombinant UMI read abundance (log10).
# print the numeric value only

Consider the reported recombinant UMI read abundance (log10) for these sequences:
Find the recorded recombinant UMI read abundance (log10) belonging to GTTACGTCATGGACCGGTTTTCCCGGTAATCCGTATTTGTT (site GGTACGTCTAA) and report it. 0.00806

Consider next the sequence GTATGAACATGGACCGGTTTTCCCGGTAATCCGTATTTGTA (site GTATGTACTTA) in the same way. 0

Consider next the sequence ACATATACATGGACCGGTTTTCCCGGTAATCCGTATTTGTG (site ACATGTACTCA) in the same way. 0.021

Continuing:
Find the recorded recombinant UMI read abundance (log10) belonging to CAAGGACCATGGACCGGTTTTCCCGGTAATCCGTATTTGGG (site CGAGGACCTCC) and report it. 0.0074

Consider next the sequence GAAGTTTCATGGACCGGTTTTCCCGGTAATCCGTATTTGTT (site GAAGCTTCTAA) in the same way. 0.43

Consider next the sequence TAAAGTCCATGGACCGGTTTTCCCGGTAATCCGTATTTGTA (site CAAAGTCCTTA) in the same way. 0.47

Consider next the sequence CTTAGAACATGGACCGGTTTTCCCGGTAATCCGTATTTGGC (site GTTAGAACTGC) in the same way. 0.016

Consider next the sequence CTGGTTTCATGGACCGGTTTTCCCGGTAATCCGTATTTGAC (site CTAGTATCTGT) in the same way. 0.542

Consider next the sequence CGGGATCCATGGACCGGTTTTCCCGGTAATCCGTATTTGAT (site CGGGACCCTAT) in the same way. 0.492

Consider next the sequence ATCAATACATGGACCGGTTTTCCCGGTAATCCGTATTTGAC (site ATCCATACTGT) in the same way. 0

Consider next the sequence GCGAAGACATGGACCGGTTTTCCCGGTAATCCGTATTTGCT (site GCGAAAACTAG) in the same way. 1.01

Consider next the sequence TCCAAATCATGGACCGGTTTTCCCGGTAATCCGTATTTGCC (site TCCAAATCTGG) in the same way. 0

Consider next the sequence CCAGCATCATGGACCGGTTTTCCCGGTAATCCGTATTTGCT (site CGATCATCTAG) in the same way. 0

Consider next the sequence AGGCAGACATGGACCGGTTTTCCCGGTAATCCGTATTTGGA (site AGGCAGACTTC) in the same way. 1.21
